Source listed as ChEMBL document CHEMBL3862021.

assay: Half life in human plasma by LC-MS/MS analysis; assay type: ADME, cell-free
measure: half-life (min)
Write down the numeric answer in min and omit the unit.

molecule: COCCOc1ccc(NC(=O)N(O)C2N(c3ccc(Cl)cc3)C(=O)N(CC(=O)N/N=C/C=C/c3ccc([N+](=O)[O-])o3)C2(C)C)cc1 (configuration not stated)
reported-result: 570

# input Read the entry COCCOc1ccc(N2C(=O)N(CC(=O)N/N=C/C=C/c3ccc([N+](=O)[O-])o3)C(C)(C)C2N(O)C(=O)Nc2ccc(Cl)cc2)cc1 (configuration not stated) and write its reported half-life.
# output 1030

----------
assay: Half life in mouse plasma by LC-MS/MS analysis; type: ADME, cell-free
Here, each record is paired with measured half-life data.
# unit: h | format: bare number

molecule: COCCOc1ccc(N2C(=O)N(CC(=O)N/N=C/C=C/c3ccc([N+](=O)[O-])o3)C(C)(C)C2N(O)C(=O)Nc2ccc(Cl)cc2)cc1 (configuration not stated)
half-life, h: 15.7

Consider the record given below.
# input Answer with reported half-life of COCCOc1ccc(NC(=O)N(O)C2N(c3ccc(Cl)cc3)C(=O)N(CC(=O)N/N=C/C=C/c3ccc([N+](=O)[O-])o3)C2(C)C)cc1 (configuration not stated)
# output 12.5
